- experimentalProtocol: AUC (0 to 24 hrs) in human serum at 95th AUC percentile curve
- Type: ADME, cell-free
- Set-up: time < 24 hr
resultType: AUC(0-t) at 24 h (ng·h/mL)
State just the number; it will be interpreted in ng·h/mL.

Req: Which value of AUC(0-t) at 24 h has been reported for `CN(C)c1cc(NC(=O)CNC(C)(C)C)c(O)c2c1C[C@H]1C[C@H]3[C@H](N(C)C)C(O)=C(C(N)=O)C(=O)[C@@]3(O)C(O)=C1C2=O` in the records?
Resp: 18500

###

- experimentalProtocol: Volume of distribution in human serum
- Format: ADME, organism-based
resultType: Vd
Write the numeric value and append its unit.

Req: Which value of Vd has been reported for CN(C)c1cc(NC(=O)CNC(C)(C)C)c(O)c2c1C[C@H]1C[C@H]3[C@H](N(C)C)C(O)=C(C(N)=O)C(=O)[C@@]3(O)C(O)=C1C2=O [TIGECYCLINE] in the records?
Resp: 30.9 L

###

- experimentalProtocol: Penetration ratio, ratio of AUC (0 to 24 hrs) for human colon wall tissue to AUC (0 to 24 hrs) for human serum at 50th AUC percentile curve
- Assay type: ADME
resultType: Kp
Give the figure only, with no unit attached.

Req: Which value of Kp has been reported for CN(C)c1cc(NC(=O)CNC(C)(C)C)c(O)c2c1C[C@H]1C[C@H]3[C@H](N(C)C)C(O)=C(C(N)=O)C(=O)[C@@]3(O)C(O)=C1C2=O [TIGECYCLINE] in the records?
Resp: 1.73

###

- experimentalProtocol: Penetration ratio, ratio of AUC (0 to 24 hrs) for human epithelial lining fluid to AUC (0 to 24 hrs) for human serum at 50th AUC percentile curve
- Format: ADME, tissue-based
resultType: Kp
Give the figure only, with no unit attached.

Req: Which value of Kp has been reported for `CN(C)c1cc(NC(=O)CNC(C)(C)C)c(O)c2c1C[C@H]1C[C@H]3[C@H](N(C)C)C(O)=C(C(N)=O)C(=O)[C@@]3(O)C(O)=C1C2=O` in the records?
Resp: 1.15

###

- experimentalProtocol: AUC (0 to 24 hrs) in human colon wall tissue at 50th AUC percentile curve
- Format: ADME, tissue-based
- Parameters: time < 24 hr
resultType: AUC(0-t) at 24 h (ng·h/mL)
State just the number; it will be interpreted in ng·h/mL.

Req: Which value of AUC(0-t) at 24 h has been reported for CN(C)c1cc(NC(=O)CNC(C)(C)C)c(O)c2c1C[C@H]1C[C@H]3[C@H](N(C)C)C(O)=C(C(N)=O)C(=O)[C@@]3(O)C(O)=C1C2=O [TIGECYCLINE] in the records?
Resp: 15600

###

- experimentalProtocol: AUC (0 to 24 hrs) in human serum at 5th AUC percentile curve
- Assay type: ADME, cell-free
- Set-up: time < 24 hr
resultType: AUC(0-t) at 24 h (ng·h/mL)
State just the number; it will be interpreted in ng·h/mL.

Req: Which value of AUC(0-t) at 24 h has been reported for CN(C)c1cc(NC(=O)CNC(C)(C)C)c(O)c2c1C[C@H]1C[C@H]3[C@H](N(C)C)C(O)=C(C(N)=O)C(=O)[C@@]3(O)C(O)=C1C2=O [TIGECYCLINE] in the records?
Resp: 4840

###

- experimentalProtocol: Penetration ratio, ratio of AUC (0 to 24 hrs) for human epithelial lining fluid to AUC (0 to 24 hrs) for human serum at 95th AUC percentile curve
- Type: ADME, tissue-based
resultType: Kp
Give the figure only, with no unit attached.

Req: Which value of Kp has been reported for `CN(C)c1cc(NC(=O)CNC(C)(C)C)c(O)c2c1C[C@H]1C[C@H]3[C@H](N(C)C)C(O)=C(C(N)=O)C(=O)[C@@]3(O)C(O)=C1C2=O` in the records?
Resp: 5.23

###

- experimentalProtocol: AUC (0 to 24 hrs) in human epithelial lining fluid at 75th AUC percentile curve
- Format: ADME, tissue-based
- Parameters: time < 24 hr
resultType: AUC(0-t) at 24 h

Req: Which value of AUC(0-t) at 24 h has been reported for `CN(C)c1cc(NC(=O)CNC(C)(C)C)c(O)c2c1C[C@H]1C[C@H]3[C@H](N(C)C)C(O)=C(C(N)=O)C(=O)[C@@]3(O)C(O)=C1C2=O` in the records?
Resp: 22300 ng·h/mL

###

- experimentalProtocol: AUC (0 to 24 hrs) in human colon wall tissue at 95th AUC percentile curve
- Assay type: ADME, tissue-based
- Set-up: time < 24 hr
resultType: AUC(0-t) at 24 h (µg·h/mL)
State just the number; it will be interpreted in µg·h/mL.

Req: Which value of AUC(0-t) at 24 h has been reported for `CN(C)c1cc(NC(=O)CNC(C)(C)C)c(O)c2c1C[C@H]1C[C@H]3[C@H](N(C)C)C(O)=C(C(N)=O)C(=O)[C@@]3(O)C(O)=C1C2=O` in the records?
Resp: 3370

###

- experimentalProtocol: Penetration ratio, ratio of AUC (0 to 24 hrs) for human colon wall tissue to AUC (0 to 24 hrs) for human serum at 5th AUC percentile curve
- Format: ADME
resultType: Kp
Give the figure only, with no unit attached.

Req: Which value of Kp has been reported for `CN(C)c1cc(NC(=O)CNC(C)(C)C)c(O)c2c1C[C@H]1C[C@H]3[C@H](N(C)C)C(O)=C(C(N)=O)C(=O)[C@@]3(O)C(O)=C1C2=O` in the records?
Resp: 0.16

###

- experimentalProtocol: Penetration ratio, ratio of AUC (0 to 24 hrs) for human colon wall tissue to AUC (0 to 24 hrs) for human serum at 25th AUC percentile curve
- Assay type: ADME
resultType: Kp
Give the figure only, with no unit attached.

Req: Which value of Kp has been reported for `CN(C)c1cc(NC(=O)CNC(C)(C)C)c(O)c2c1C[C@H]1C[C@H]3[C@H](N(C)C)C(O)=C(C(N)=O)C(=O)[C@@]3(O)C(O)=C1C2=O` in the records?
Resp: 0.683

###

- experimentalProtocol: Penetration ratio, ratio of AUC (0 to 24 hrs) for human colon wall tissue to AUC (0 to 24 hrs) for human serum at 95th AUC percentile curve
- Type: ADME
resultType: Kp
Give the figure only, with no unit attached.

Req: Which value of Kp has been reported for `CN(C)c1cc(NC(=O)CNC(C)(C)C)c(O)c2c1C[C@H]1C[C@H]3[C@H](N(C)C)C(O)=C(C(N)=O)C(=O)[C@@]3(O)C(O)=C1C2=O` in the records?
Resp: 199
